Where do the numbers come from? From ChEMBL document CHEMBL1156883.

- target: Myelin-associated glycoprotein (Mus musculus)
- experimental protocol: Binding affinity to mouse MAGd1-3Fc expressed in CHO-Lec 3.2.8.1 cells by biocore
- Format: cell-based
measured quantity: Kd (µM)
Please state the figure in µM; there is no need to write the unit.

Exercise: Please look up its Kd: CO[C@]1(C(=O)O)C[C@H](O)[C@@H](NC(C)=O)[C@H]([C@@H](O)[C@H](O)CNC(=O)c2ccccc2)O1
Solution: 137

###

- target: Myelin-associated glycoprotein (Mus musculus) (UniProt P20917)
- Sequence (P20917 whole entry): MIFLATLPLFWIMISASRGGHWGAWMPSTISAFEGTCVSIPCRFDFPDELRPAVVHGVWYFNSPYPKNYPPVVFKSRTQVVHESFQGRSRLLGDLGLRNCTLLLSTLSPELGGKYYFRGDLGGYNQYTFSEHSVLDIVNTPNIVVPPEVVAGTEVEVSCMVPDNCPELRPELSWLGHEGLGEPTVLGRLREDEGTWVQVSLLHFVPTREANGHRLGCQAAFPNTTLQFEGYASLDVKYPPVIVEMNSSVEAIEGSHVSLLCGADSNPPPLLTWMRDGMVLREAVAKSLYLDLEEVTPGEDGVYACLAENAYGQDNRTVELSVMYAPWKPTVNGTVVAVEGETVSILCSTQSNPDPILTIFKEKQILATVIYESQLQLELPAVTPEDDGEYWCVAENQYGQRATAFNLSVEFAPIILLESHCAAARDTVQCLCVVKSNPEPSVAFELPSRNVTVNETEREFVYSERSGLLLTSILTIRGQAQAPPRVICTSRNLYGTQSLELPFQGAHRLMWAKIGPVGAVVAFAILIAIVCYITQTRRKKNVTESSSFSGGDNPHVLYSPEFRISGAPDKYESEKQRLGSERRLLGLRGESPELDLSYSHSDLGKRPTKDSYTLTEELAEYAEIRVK
- experimental protocol: Inhibition of mouse MAGd1-3Fc expressed in CHO-Lec 3.2.8.1 cells by hepten inhibition assay relative to sodium-(2R,4S,5R,6R)-5-acetamido-2-(benzyloxy)-6-((1S,2R)-3-(4-chlorobenzamido)-1,2-dihydroxypropyl)-4-hydroxytetrahydro-2H-pyran-2-carboxylate
- Format: cell-based
Listed below: Ratio values for each entry.
When you answer, write just the number.

Some compounds with recorded Ratio:
CC(=O)N[C@H]1[C@H]([C@@H](O)[C@H](O)CNC(=O)c2ccc(Cl)cc2)O[C@@](OCc2cccc(F)c2F)(C(=O)O)C[C@@H]1O : 0.3
CC(=O)N[C@H]1[C@H]([C@@H](O)[C@H](O)CNC(=O)c2ccc(Cl)cc2)O[C@@](OCc2ccc(F)cc2)(C(=O)O)C[C@@H]1O : 1.2
CC(=O)N[C@H]1[C@H]([C@@H](O)[C@H](O)CNC(=O)c2cccc(Cl)c2)O[C@@](OCc2ccccc2)(C(=O)O)C[C@@H]1O : 2.65

With those in mind, consider the next compound.
Exercise: Please look up its Ratio: CO[C@]1(C(=O)O)C[C@H](O)[C@@H](NC(C)=O)[C@H]([C@@H](O)[C@H](O)CNC(=O)c2ccccc2)O1
Solution: 18
